// provenance: PubChem BioAssay (NCI)

- Test system: OVCAR-3 ovarian
- Test summary: NCI-60 one-dose screen, 48 h (100 = growth as untreated, 0 = no growth, -100 = all killed)
- Measurement conditions: 10 µM unless noted
The panel holds about 83,000 compounds, 20% with a hit somewhere; the sample as a whole holds those more often.
Measured metric: growth (%)

{"columns": ["Compound", "Uom", "Experimental value"],
 "data": [
  ["N#Cc1c(NC(=O)c2ccco2)[n+]([O-])c2ccccc2[n+]1[O-]", "%", 115],
  ["Nc1nc(Nc2ccccc2SSc2ccccc2Nc2nc(N)nc(-c3cccc(Cl)c3)n2)nc(-c2cccc(Cl)c2)n1", "%", 96.2],
  ["Cn1ccnc1C(=O)/C=C/c1ccc(C(=O)Nc2nc3ccccc3[nH]2)cc1", "%", 7.54],
  ["Cc1onc(-c2ccccc2Cl)c1C(=O)N[C@@H]1C(=O)N2[C@@H]1SC(C)(C)[C@@H]2C(=O)O", "%", 118],
  ["COc1cc(-c2nc3nc4sc(C)c(C)c4c(=O)n3[nH]2)cc(OC)c1OC", "%", 93.1],
  ["CC1CN(/N=C/c2ccc([N+](=O)[O-])o2)C(=N)O1 (centres undefined)", "%", 105],
  ["NS(=O)(=O)c1ccc(-n2ncc3c(N/N=C/c4ccccc4)ncnc32)cc1", "%", 99.9],
  ["O=C(CC(C(=O)c1ccccc1)N1CCN(Cc2ccccc2)CC1)c1ccccc1 (centres undefined)", "%", 58.8],
  ["COc1cc(/C=C/C(=O)c2c(C)n([O-])c3ccccc3[n+]2=O)cc(OC)c1OC", "%", 59.2],
  ["O=c1c2c(=NCCCN3CCCC3)cc3c(=O)n(CCCN4CCCC4)c(=O)c4c(NCCCN5CCCC5)cc(c(O)n1CCCN1CCCC1)c2c4-3", "%", -21.8],
  ["COc1ccc(-c2ccc(O)c(C(=O)/C=C/c3cc(OC)c(OC)c(OC)c3)c2)cc1", "%", 93.7],
  ["COc1cc(/C=N/OC(=O)Nc2ccccc2)cc(OC)c1OC", "%", 114],
  ["C/C(=C\\CCc1ccoc1)CC/C=C(\\C)CCCC1COC(=O)C1 (centres undefined)", "%", 105],
  ["COc1cccc(N2CCN(CC(=O)N3CCN(c4nnc(-c5ccc(Cl)cc5)c(-c5ccc(Cl)cc5)n4)CC3)CC2)c1", "%", 68.1]
]}
